Recorded kinase still bound, per cent of control by entry
- TARGET: MAP3K2 (human) (UniProt Q9Y2U5)
- Sequence (Q9Y2U5 whole entry, looked up): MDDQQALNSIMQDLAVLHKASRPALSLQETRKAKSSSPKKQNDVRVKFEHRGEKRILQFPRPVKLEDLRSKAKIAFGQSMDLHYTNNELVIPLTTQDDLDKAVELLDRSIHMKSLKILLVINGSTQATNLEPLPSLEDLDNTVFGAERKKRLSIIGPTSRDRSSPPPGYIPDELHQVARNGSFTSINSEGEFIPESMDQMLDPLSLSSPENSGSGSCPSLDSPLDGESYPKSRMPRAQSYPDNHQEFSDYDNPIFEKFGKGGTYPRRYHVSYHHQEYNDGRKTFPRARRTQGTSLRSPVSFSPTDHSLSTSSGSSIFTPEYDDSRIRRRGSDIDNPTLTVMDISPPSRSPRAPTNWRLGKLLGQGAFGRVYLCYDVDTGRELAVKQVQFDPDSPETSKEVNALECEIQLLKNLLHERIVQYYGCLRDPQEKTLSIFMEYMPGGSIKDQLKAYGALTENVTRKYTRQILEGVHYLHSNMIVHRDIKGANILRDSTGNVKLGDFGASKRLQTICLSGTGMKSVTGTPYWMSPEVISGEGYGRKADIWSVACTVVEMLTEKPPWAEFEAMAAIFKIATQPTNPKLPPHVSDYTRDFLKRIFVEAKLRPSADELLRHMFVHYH
- ASSAY_PROTOCOL: KINOMEscan competition binding
- PROTOCOL_CONDITIONS: compound 10.0 µM

{"SMILES_STR": "CCN1CCN(C(=O)Cc2ccc(Nc3ncc(F)c(Nc4ccc(C(=O)Nc5ccccc5Cl)cc4)n3)cc2)CC1", "kinase still bound, per cent of control (%)": 31}
{"SMILES_STR": "COCC(=O)NC/C=C/c1ccc2ncnc(Nc3ccc(Oc4ccc(C)nc4)c(C)c3)c2c1", "kinase still bound, per cent of control (%)": 100}
{"SMILES_STR": "CN(C)C/C=C/C(=O)Nc1ccc(C(=O)Nc2cccc(Nc3nccc(-c4cccnc4)n3)c2)cc1", "kinase still bound, per cent of control (%)": 79}
{"SMILES_STR": "O=c1cc(N2CCOCC2)oc2c(-c3cccc4c3sc3ccccc34)cccc12", "kinase still bound, per cent of control (%)": 100}
{"SMILES_STR": "C=CC(=O)Nc1cc(-n2c(=O)ccc3cnc4ccc(-c5cn[nH]c5)cc4c32)ccc1C", "kinase still bound, per cent of control (%)": 88}
{"SMILES_STR": "NC(=O)Nc1cc(-c2cccc(F)c2)sc1C(=O)N[C@@H]1CCCNC1", "kinase still bound, per cent of control (%)": 0}
{"SMILES_STR": "CCN(CC)CCCCNc1ncc2c(n1)N(C)C(=O)N(c1c(Cl)c(OC)cc(OC)c1Cl)C2", "kinase still bound, per cent of control (%)": 6.8}
{"SMILES_STR": "COc1ccc(N(C(=O)Oc2c(C)cccc2C)c2ccnc(Nc3ccc(N4CCN(C)CC4)cc3)n2)c(OC)c1", "kinase still bound, per cent of control (%)": 2.2}
{"SMILES_STR": "CS(=O)(=O)N1CCN(Cc2cc3nc(-c4cccc5[nH]ncc45)nc(N4CCOCC4)c3s2)CC1", "kinase still bound, per cent of control (%)": 100}
{"SMILES_STR": "O=C1NC(=O)/C(=C/c2ccc3nccc(-c4ccncc4)c3c2)S1", "kinase still bound, per cent of control (%)": 90}
{"SMILES_STR": "COc1cc(C(=O)N2CCC(N3CCN(C)CC3)CC2)ccc1Nc1ncc2c(n1)N(C)c1ccccc1C(=O)N2C", "kinase still bound, per cent of control (%)": 97}
{"SMILES_STR": "COc1cc2ncn(-c3cc(OCc4ccccc4C(F)(F)F)c(C(N)=O)s3)c2cc1OC", "kinase still bound, per cent of control (%)": 100}
{"SMILES_STR": "COc1cc(N2CCN(C)CC2)ccc1Nc1ncc2c(n1)N(C)c1ccccc1C(=O)N2C", "kinase still bound, per cent of control (%)": 32}
{"SMILES_STR": "CNC(=O)c1cc(Oc2ccc(NC(=O)Nc3ccc(Cl)c(C(F)(F)F)c3)cc2)ccn1", "kinase still bound, per cent of control (%)": 100}
{"SMILES_STR": "C[C@@H](Oc1cc(-c2cnn(C3CCNCC3)c2)cnc1N)c1c(Cl)ccc(F)c1Cl", "kinase still bound, per cent of control (%)": 0.05}
{"SMILES_STR": "N#CCNC(=O)c1ccc(-c2ccnc(Nc3ccc(N4CCOCC4)cc3)n2)cc1", "kinase still bound, per cent of control (%)": 100}
{"SMILES_STR": "O=C(Nc1cccc(Nc2ncc(Br)c(NCCc3cnc[nH]3)n2)c1)N1CCCC1", "kinase still bound, per cent of control (%)": 0.25}
{"SMILES_STR": "COc1cc2ncnc(-n3nc(-c4ccccn4)nc3N)c2cc1OC", "kinase still bound, per cent of control (%)": 33}

These data points were gathered from the kinase profiling compilation of Christmann-Franck et al. (2016).
